# TESTED_ON: T1, E. coli-expressed recombinant human IL-13 (human, UniProt P35225 35-146)
# T1 construct: Untagged E. coli-expressed human IL-13; also called hIL-13; human IL13 (CA)
# MEASUREMENT_PROTOCOL: human IL-13 binding sandwich ELISA
PARAMETER: EC50 (µg/mL)
One number for each entry, in µg/mL.

# example entries with known answers
L1+A1 (antibody, human IgG1, kappa, V domains shown, Humanised 6A1, VH construct A1 and VL construct L1, human gamma1 wild type / kappa constant regions; also called A1L1; humanised anti-IL-13 mAb L1+A1) VH: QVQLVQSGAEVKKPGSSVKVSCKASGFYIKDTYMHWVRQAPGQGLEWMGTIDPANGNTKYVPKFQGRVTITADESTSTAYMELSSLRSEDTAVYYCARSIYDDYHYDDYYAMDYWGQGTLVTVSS VL: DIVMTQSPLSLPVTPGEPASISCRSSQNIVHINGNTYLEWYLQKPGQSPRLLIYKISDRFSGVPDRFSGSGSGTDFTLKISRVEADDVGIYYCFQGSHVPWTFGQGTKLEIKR :: 0.018
L2+A1 (antibody, human IgG1, kappa, V domains shown, Humanised 6A1, VH construct A1 and VL construct L2; also called A1L2) VH: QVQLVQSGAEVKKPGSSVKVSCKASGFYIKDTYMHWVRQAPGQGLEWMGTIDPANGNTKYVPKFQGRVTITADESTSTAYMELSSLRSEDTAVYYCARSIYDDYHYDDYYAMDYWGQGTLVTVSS VL: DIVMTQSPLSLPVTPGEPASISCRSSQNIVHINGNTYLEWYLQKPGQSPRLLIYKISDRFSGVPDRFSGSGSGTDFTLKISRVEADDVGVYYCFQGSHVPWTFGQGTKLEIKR :: 0.024
monoclonal antibody 6A1 (antibody, IgG1, V domains shown, also called 6A1 parental mAb; parental mouse mAb 6A1) VH: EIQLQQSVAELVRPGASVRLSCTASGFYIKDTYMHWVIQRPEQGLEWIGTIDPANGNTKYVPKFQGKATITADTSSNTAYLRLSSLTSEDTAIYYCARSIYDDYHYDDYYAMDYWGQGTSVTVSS VL: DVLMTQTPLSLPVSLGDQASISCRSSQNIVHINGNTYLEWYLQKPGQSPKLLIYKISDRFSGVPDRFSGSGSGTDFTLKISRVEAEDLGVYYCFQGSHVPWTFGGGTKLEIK :: 0.049

# evaluate next
Fill in the blank: the reported EC50 of chimaeric 6A1 (antibody, human IgG1, V domains shown, Parent murine 6A1 V regions on human IgG1/k wild type C regions, expressed in CHO cells; also called 6A1c; 6A1 chimaeric antibody) VH: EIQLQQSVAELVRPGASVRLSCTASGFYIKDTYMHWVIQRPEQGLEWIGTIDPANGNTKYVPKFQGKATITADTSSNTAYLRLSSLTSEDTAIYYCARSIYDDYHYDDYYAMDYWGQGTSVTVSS VL: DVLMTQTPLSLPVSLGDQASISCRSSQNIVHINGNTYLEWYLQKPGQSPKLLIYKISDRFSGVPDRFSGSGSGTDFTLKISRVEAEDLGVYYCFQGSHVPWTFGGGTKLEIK is ____. 0.015
